Molecular target: K74A
Assay: SPR; 37 C
assay-endpoint: pKd
# pKd = -log10(concentration in molar units)

Example results:
• Activin A (ligand) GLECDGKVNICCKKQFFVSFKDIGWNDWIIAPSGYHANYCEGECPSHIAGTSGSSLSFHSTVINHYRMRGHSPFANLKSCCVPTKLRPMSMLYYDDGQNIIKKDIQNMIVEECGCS = 10.47
• GDF11 (ligand) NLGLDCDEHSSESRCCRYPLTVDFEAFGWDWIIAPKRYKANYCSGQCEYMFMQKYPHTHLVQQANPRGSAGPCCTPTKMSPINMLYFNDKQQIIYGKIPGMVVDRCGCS = 9.37
• BMP10 (ligand) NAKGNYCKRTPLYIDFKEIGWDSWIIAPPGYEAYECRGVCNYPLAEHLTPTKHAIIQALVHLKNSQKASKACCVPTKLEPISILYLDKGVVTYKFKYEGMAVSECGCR = 10.48

As a next step, examine the binder that follows.
Return reported pKd; argument: BMP9 (ligand) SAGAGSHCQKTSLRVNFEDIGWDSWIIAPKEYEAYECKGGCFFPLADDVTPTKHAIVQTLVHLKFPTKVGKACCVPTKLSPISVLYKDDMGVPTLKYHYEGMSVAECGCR
9.44
